Recorded values, source patent US11912693B2.

# key: entry, value: hS1P1 B-arrestin2 pEC50
Target: human sphingosine-1-phosphate receptor 1 (S1P1) (Homo sapiens (Human), UniProt P21453)
Sequence (P21453 whole entry, looked up): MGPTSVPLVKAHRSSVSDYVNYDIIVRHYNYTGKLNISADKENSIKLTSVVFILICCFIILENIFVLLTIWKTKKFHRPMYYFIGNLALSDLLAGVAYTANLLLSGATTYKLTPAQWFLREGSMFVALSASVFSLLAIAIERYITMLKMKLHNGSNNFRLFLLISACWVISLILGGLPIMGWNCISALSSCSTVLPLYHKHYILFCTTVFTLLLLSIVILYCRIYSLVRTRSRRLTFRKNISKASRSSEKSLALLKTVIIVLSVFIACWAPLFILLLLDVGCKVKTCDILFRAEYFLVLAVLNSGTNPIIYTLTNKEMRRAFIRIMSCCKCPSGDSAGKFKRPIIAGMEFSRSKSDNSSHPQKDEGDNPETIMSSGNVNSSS
Sequence (P32121 whole entry partner, looked up): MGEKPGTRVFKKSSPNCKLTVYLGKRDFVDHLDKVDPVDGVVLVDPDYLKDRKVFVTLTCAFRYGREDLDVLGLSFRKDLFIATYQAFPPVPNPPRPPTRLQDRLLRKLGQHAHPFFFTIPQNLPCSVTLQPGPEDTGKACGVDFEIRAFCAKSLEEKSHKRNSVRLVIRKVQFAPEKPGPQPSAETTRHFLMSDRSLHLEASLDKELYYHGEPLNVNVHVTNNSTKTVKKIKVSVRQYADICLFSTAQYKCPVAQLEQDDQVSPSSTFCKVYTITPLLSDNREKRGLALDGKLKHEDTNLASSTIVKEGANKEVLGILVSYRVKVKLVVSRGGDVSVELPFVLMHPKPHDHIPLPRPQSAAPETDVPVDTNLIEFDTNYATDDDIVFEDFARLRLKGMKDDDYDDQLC
Assay: β-Arrestin2 recruitment assay (PathHunter), S1P1 CHO-K1 cells
Type: cell-based
Conditions: β-arrestin2 recruitment, S1P1 CHO-K1 cells
Description: Stable clonal Chinese hamster ovary K1 (CHO-K1) cells co-expressing EA-β-arrestin2 and the human sphingosine-1-phosphate receptor 1 (NM_001400, S1P1) with a C-terminal Prolink™ tag were purchased from DiscoverX corporation (Cat #: 93-0207C2). […] Agonist-promoted β-arrestin2 recruitment to the sphingosine-1-phosphate 1 receptor was determined using the β-arrestin PathHunter®) Detection kit (DiscoverX Corporation, Cat #: 93-0001). […]

Inquiry: Report hS1P1 B-arrestin2 pEC50 for CCC1(CC)CC(=O)c2cc(-c3nc(-c4ccc(S(=O)(=O)NC)cc4)no3)ccc2O1 tested on human sphingosine-1-phosphate receptor 1 (S1P1) (Homo sapiens (Human), UniProt P21453).
Reply text: >5

Inquiry: Then COc1ccccc1-c1csc(-c2cnc3c(ccn3C(C)C)c2)n1 ?
Reply text: <5

Inquiry: Then Cc1ccncc1-c1noc(-c2ccc3nnn(CC(C)C)c3c2)n1 ?
Reply text: >5

Inquiry: Then C=CCn1nnc2cc(-c3noc(-c4ccccc4Br)n3)ccc21 ?
Reply text: <5

Inquiry: Then COc1cc(-c2noc(-c3ccc4c(c3)nnn4C3CCCC3)n2)ccn1 ?
Reply text: <5

Inquiry: Then Cc1ccccc1C(C)c1noc(-c2ccc3c(c2)nnn3C(C)C)n1 (stereo not drawn) ?
Reply text: <5

Inquiry: Then Cc1ccccc1-c1nc(-c2ccc3c(c2)nnn3C2CCCC2)no1 ?
Reply text: >5

Inquiry: Then CCC1(CC)CC(=O)c2cc(-c3nc(-c4ccnc(OC)c4)no3)ccc2O1 ?
Reply text: <5

Inquiry: Then CCC1(CC)CC(=O)c2cc(-c3nc(-c4ccc(C(N)=O)cc4)no3)ccc2O1 ?
Reply text: >5

Inquiry: Then CCC1(CC)CC(=O)c2cc(-c3nc(-c4cccc(OC)c4)no3)ccc2O1 ?
Reply text: <5
